- Test system: OVCAR-8 ovarian
- RUN DESCRIPTION: NCI tumour cell line growth inhibition, 48 h; in the data active = GI50 below about 0.43 µM; inactive = the rest
Output constraint: value belongs to active, inactive

CCOC(=O)CC1C(COC(=O)NC)OC(n2cnc3c(NC(=O)Nc4ccccc4)ncnc32)C1O[Si](C)(C)C(C)(C)C (stereo not given) = inactive
COc1ccc2c(c1)CC[C@H](O)/C2=C/c1cc(OC)c(OC)c(OC)c1 = active
CCN(CC)CCCNC(=O)c1c2c(n3ccccc13)C(=O)c1ncccc1C2=O = inactive

Q: Could you check what this test reported for "CC(=O)[CH-]C(=O)c1ccccc1.CC(=O)[CH-]C(=O)c1ccccc1.CCOCC[O-].CCOCC[O-].[Ti+4]" ?
Ans: inactive

Q: Could you check what this test reported for "Cc1ccc(N(CC(=O)Nc2ccc(S(=O)(=O)N3CCC(N4CCCC4)CC3)cc2)S(=O)(=O)c2ccc(Cl)cc2)cc1" ?
Ans: inactive

* * *

- Tested on: SF-268 CNS
- RUN DESCRIPTION: NCI tumour cell line growth inhibition, 48 h
ENDPOINT LABEL: TGI

CN(c1ccccc1Cl)S(=O)(=O)c1ccc([N+](=O)[O-])cc1 = > 100 µM
COC(=O)N1CC2C3C4CC(C(c5ccccc5)=C4c4ccccc4)C3C21 (stereo unspecified) = 33.7 µM
Oc1ccc(Cl)cc1CN1CCN(Cc2cc(Cl)ccc2O)C1 = 12.8 µM

For reference, reported TGI for "O=C(NCc1cccc2ccccc12)N/N=C\c1ccc(Cl)cc1" stands at > 100 µM

For reference, reported TGI for O=CC12C3CCC1C2C(=O)C3 (stereo unspecified) stands at > 100 µM

For reference, reported TGI for O=C1C(Cl)C(c2ccccc2O)N1n1cnc2ccccc2c1=O (stereo unspecified) stands at > 100 µM

For reference, reported TGI for "Cn1c2ccc(Br)cc2c2c3c(c4c5ccccc5[nH]c4c21)C(=O)N(O)C3=O" stands at 0.72 µM

For reference, reported TGI for Cc1cc(CC(C)CC(C)(C)C)n(O)c(=O)c1 (stereo unspecified) (tested in a mixture with another compound) stands at 16.1 µM

For reference, reported TGI for "CCOc1cccc2ccc[n+](CC)c12" stands at 77.9 µM

For reference, reported TGI for "COC(=O)Cc1ccc(Oc2cnc3cc(F)c(F)cc3n2)cc1" stands at > 100 µM

For reference, reported TGI for "FC(F)(F)c1cccc(-c2nc3ccccc3c3c2[C@@]2(N4CCCC4)CCCC[C@@H]32)c1" stands at > 100 µM

* * *

- Test system: CAKI-1 renal
- RUN DESCRIPTION: NCI tumour cell line growth inhibition, 48 h
# TGI annotations

CCCCCCCCCCCCCCCC(=O)N(CCCCCCCCCCC(=O)O)CC(O)C(O)C(OC1OC(CO)C(O)C(O)C1O)C(O)CO (stereo unspecified) = > 100 µM
COC(=O)c1cc(O)c2c(c1C(=O)OC)C[C@H]1[C@@H]3CC=C4C[C@@H](O)CC[C@]4(C)[C@H]3CC[C@]21C = 9.07 µM
Clc1ccc(C(SCc2ccccc2)SCc2ccccc2)cc1 = > 10 µM
O=C(O)/C(Cc1ccc([N+](=O)[O-])cc1)=N\O = > 100 µM
Cc1csc(/N=C\c2c(O)c3ccccc3oc2=O)n1 = 34.1 µM
CC/C(CC(=O)CCC(=O)Nc1ccccc1[N+](=O)[O-])=N/NC(=O)C[n+]1ccccc1 = > 100 µM
Nc1nc2c(c(=O)[nH]1)C(c1ccc(Cl)cc1)C=C(c1ccccc1)N2 (stereo unspecified) = > 100 µM
Nc1nc(N)c2cc(NCc3ccc(Cl)c(Cl)c3)ccc2n1 = 2.71 µM
C=C(Nc1ccc([N+](=O)[O-])cc1[N+](=O)[O-])c1c/c(=N\NC(N)=S)c2ccccc2o1 = > 100 µM
COc1cc2cc(C(=O)N3CC(CCl)c4c3cc(N)c3ccccc43)[nH]c2c(OC)c1OC (stereo unspecified) = < 0.01 µM

For reference, reported TGI for CCC(CNc1cc(OC)cc2cccnc12)NC1CCCCC1 (stereo unspecified) stands at > 100 µM

For reference, reported TGI for "O=c1c2cccc3cccc(c4n1CCN=4)c32" stands at > 100 µM

For reference, reported TGI for "O=[N+]([O-])CCc1cccc([N+](=O)[O-])c1" stands at > 100 µM
